Experiment: protein stability index of a GFP-peptide fusion (yeast GPS) (PSI 1-4); higher = more stable; sorted into four equal gates, so the index is relative within each strain
Details: san1∆
measure: protein stability index
Form: value (number only, do not type unit).

Please review the following examples before continuing.
| monomer.sequence | protein stability index |
| --- | --- |
| DSIPRDVAYLLKSESAT [YGL172W/NUP49] | 2.91 |
| KRKSAQEPELSLDQGDA [SMC4] | 3.09 |
| IMDNFLERTAIELKTDW [RPN1] | 3.07 |
| HSDMASKMYNTDKKAFL [PRP8] | 2.89 |
| YGKPTNQGVNELKYQRS [RPL15A] | 2.59 |

q: Supply protein stability index value. Item: VKQYNKKWPQFYAAVQK [SIN4]
a: 1.55

q: Supply protein stability index value. Item: VHDIFSKIFNESFPDDI [CDC53]
a: 2.87

q: Supply protein stability index value. Item: GVIDDSFDVAISTACPR [SMC4]
a: 2.45

q: Supply protein stability index value. Item: RQFEVKQLQLAMHNSKA [POP1]
a: 1.77

q: Supply protein stability index value. Item: YTPEESAWIWPMDEETK [RPC25]
a: 2.54

q: Supply protein stability index value. Item: FTFGLTVVQVYDNGQVF [RPP0]
a: 1.36

###

Test: protein stability index of a GFP-peptide fusion (yeast GPS) (PSI 1-4); higher = more stable; sorted into four equal gates, so the index is relative within each strain
Details: pdr5∆
measure: protein stability index
Form: value (number only, do not type unit).

Please review the following examples before continuing.
| monomer.sequence | endpoint.value |
| --- | --- |
| AILQEKILSILNRSHFA [ECM29] | 2.15 |
| AEKLGSKKAEKTGTKPA [RPL4A] | 3.08 |
| KASLLLHVLVAHKLKKS [FAS2] | 1.27 |
| EEEEDTTTTANINEVKK [NUT1] | 3.39 |
| PYLPKHYLVLLVAKFLY [YJR042W/NUP85] | 1.28 |
| IERYPSKVTKKHGAKKV [RPL27B] | 3.49 |
| QFINLAGYKKLGLKFDD [QCR7] | 3.61 |
| NIIQAKRDAKAAGSYYV [RPL7A] | 3.24 |
| PSIPLVIIRRLKTRDWI [POP1] | 1.69 |
| AVNMTQNIMTLPDGKNG [MED6] | 3.04 |

q: Supply protein stability index value. Item: LEHVLLVPTASFFIASQ [FAS1]
a: 1.46

q: Supply protein stability index value. Item: KIVFILDSDSENDLSFA [RRI2]
a: 2.61

q: Supply protein stability index value. Item: REMRRKVYAQLLESYKT [RPN7]
a: 2.96

q: Supply protein stability index value. Item: NDQDMFTIVSLVQLKKF [YML103C/NUP188]
a: 2.84

q: Supply protein stability index value. Item: EVGDVCINELDNWNAPL [RPO31]
a: 3.06

q: Supply protein stability index value. Item: DSEIEISSEKLLTLTNA [RPP1A]
a: 2.92

q: Supply protein stability index value. Item: RLNENKKIGCYMFANLE [CSN12]
a: 3.14

q: Supply protein stability index value. Item: PQMFLNQQAQARQQVAQ [GAL11]
a: 2.46

q: Supply protein stability index value. Item: KDEPVQNDILQESFINT [FAS2]
a: 3.14

q: Supply protein stability index value. Item: NEDDLTVKLTEIVWTSS [RPO31]
a: 3.04
